target: Serine/threonine-protein kinase 4 (Homo sapiens); details: at 1 µM;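 further: mean inhibition of MST1, part of the GSK PKIS dataset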
Measured Attribute: inhibition (%)
Output spec: scalar in %, unitless text.

Recorded results for 4 compounds are shown here.
>>> print(df.to_string())
                                smiles_data  measured_attribute  result_units  endpoint_result
0  Nc1ncc(-c2cccc(S(N)(=O)=O)c2)c2scc(-c3ccc(F)c(Cl)c3)c12          inhibition             %             6.44
1  O=C(Nc1n[nH]c2cc(-c3ccc(F)cc3)ccc12)C1CC1          inhibition             %             4.72
2       COc1cc(/C=N/Nc2ncnc3[nH]ncc23)ccc1O          inhibition             %             19.5
3  CCCN1CCC(c2ccc(Nc3nc(Nc4cc(F)ccc4C(N)=O)c4cc[nH]c4n3)c(OC)c2)CC1          inhibition             %             43.9

Using the record for `Fc1cccc(COc2ccc(Nc3ncnc4sc(-c5ccco5)cc34)cc2Cl)c1` , report its inhibition. 8.32

Source: ChEMBL document CHEMBL1961873
